System: SK-MEL-5 melanoma
METHOD_SUMMARY: NCI-60 one-dose screen, 48 h (100 = growth as untreated, 0 = no growth, -100 = all killed)
MEASUREMENT_CONDITIONS: 10 µM unless noted
The panel holds about 83,000 compounds, 20% with a hit somewhere; the sample as a whole holds those more often.

COMPOUND	READING_UNIT	growth
C/C(=N\Nc1nc(C)cs1)c1cc2ccccc2o1	%	92
Clc1ccc(-c2cn3ccsc3n2)c(Cl)c1Cl	%	79.8
COc1ccc(-c2ccc(-c3ccc(C(=N)N)cn3)s2)cc1	%	85
O=C(CN1C(=O)/C(=C/c2ccco2)SC1=S)NCCc1c[nH]c2ccc(F)cc12	%	99.6
N#Cc1c(-c2ccccc2)cc(-c2ccccc2)n(CCCC(=O)NO)c1=O	%	-13.6
N=C(N)SCc1cccc2c(CSC(=N)N)cccc12	%	109
O=C(c1ccc(F)c(Cl)c1)N1c2ccccc2Sc2ccccc21	%	34.4
COc1ccc(C(O)c2cc3c(N)c(C(=O)Nc4cccc(Cl)c4)sc3nc2C)cc1 (centres undefined)	%	-16.9
COc1ccc(-c2cn(-c3ccc(Cl)cc3)c(SCC(=O)c3ccc([N+](=O)[O-])cc3)n2)cc1	%	88.2
Cn1cc(-c2nc(-c3c[nH]c4ccncc34)cs2)c2cc(Br)ccc21	%	-47.9
CCc1cccc(Sc2cc(C(=O)N3Cc4ccc(OCCN(C)C)cc4C3)ccc2O)c1	%	26.5
C#CC#CC#CC#CC#CC#CC#CC#CCC1OCC(COC(=O)O[C@@H](C(=O)O[C@H]2C[C@@]3(O)[C@@H](OC(=O)c4ccccc4)[C@@H]4[C@]5(OC(C)=O)CO[C@@H]5C[C@H](O)[C@@]4(C)C(=O)[C@H](OC(C)=O)C(=C2C)C3(C)C)[C@@H](NC(=O)c2ccccc2)c2ccccc2)O1 (some centres undefined)	%	23.4
CCCCn1sc(=O)n(Cc2ccc(CNC(=O)OCc3ccc4c(Cl)cc(Cl)c(O)c4n3)cc2)c1=O	%	59.5
Cc1cc(C)cc(Nc2ccc([N+](=O)[O-])c(NCCN3CCOCC3)n2)c1	%	-20.3
Oc1c(Cl)cc(Cl)c2ccc(Cn3cc(-c4cccc(C(F)(F)F)c4)nn3)nc12	%	98.2
CSCCC(NC(=O)c1ccccc1)C(=O)N/N=C1\S/C(=C/c2ccc(Cl)cc2)C(=O)N1C (centres undefined)	%	82.9
Cn1c(/C=C/[N+](=O)[O-])cc2ccccc21	%	47.2
CN(C)Cc1ccc(C(=O)Nc2ccc3ncnc(Nc4ccc(Oc5cccc(F)c5)c(Cl)c4)c3c2)cc1	%	-82.6
COc1cc(/C=C/c2cc(/C=C/c3ccc(O)c(OC)c3)n(C(=O)Nc3ccc(F)cc3)n2)ccc1O	%	-8.36
